test system: NCI-H226 lung; assay: NCI tumour cell line growth inhibition, 48 h
Parameter: TGI (µM)
Numbers only; they are read as µM.

A selection of reference data follows.
{"Molecule": "Cc1ccc2oc(=O)cc(C3c4ccc([nH]4)C(c4cc(=O)oc5ccc(C)cc45)c4ccc([nH]4)C(c4cc(=O)oc5ccc(C)cc45)c4ccc([nH]4)C(c4cc(=O)oc5ccc(C)cc45)c4ccc3[nH]4)c2c1 (stereo unspecified)", "Assay system": "NCI-H226 lung", "Measure unit": "µM", "TGI": 2.78}
{"Molecule": "CCN1CCC(O)(c2ccc(Cl)c(Cl)c2)C(C(=O)c2ccc(Cl)c(Cl)c2)C1 (stereo unspecified)", "Assay system": "NCI-H226 lung", "Measure unit": "µM", "TGI": 40.1}
{"Molecule": "CC1CCC(C#N)(NOC2=NCCN2)CC1 (stereo unspecified)", "Assay system": "NCI-H226 lung", "Measure unit": "µM", "TGI": 34.1}
{"Molecule": "CC(C(O)c1ccccc1)[N+](=O)[O-] (stereo unspecified)", "Assay system": "NCI-H226 lung", "Measure unit": "µM", "TGI": 48.3}
{"Molecule": "CCCCCCCCCCC(CN(CC)CC)C(O)c1ccccc1 (stereo unspecified)", "Assay system": "NCI-H226 lung", "Measure unit": "µM", "TGI": 4.66}

API: the following record is the query input.
Q: Quick one: TGI of COc1ccc2c(c1)-c1c(c3ccccc3n1CCN1CCOCC1)CC2 ?
Result: 26.3

---

test system: RXF 393 renal; experiment: NCI tumour cell line growth inhibition, 48 h
# key: entry, value: TGI
Numbers only; they are read as µM.

Q: Quick one: TGI of CC1(C)CC(O)CCCCCCOc2c(CN)cccc2NC(=O)c2nc(cnc2N)-c2ccc(cc2)S1(=O)=O (stereo not given) ?
Result: 1.54

Q: Quick one: TGI of CC(C)(C)n1cc(-c2ccnc(NCCCNS(=O)(=O)c3ccc(Cl)cc3)c2)c(-c2cccc(O)c2)n1 ?
Result: 2.99

Q: Quick one: TGI of C=C(C)C1CCC2(CO)C(O)CC3(C)C(CCC4C5(C)CCC(O)C(C)(C)C5CCC43C)C12 (stereo not given) ?
Result: 9.65

Q: Quick one: TGI of CCCCCCCCCCOC1C(C(C)OCCCN(C)C)OC2OC3(CCCCC3)OC21 (stereo not given) ?
Result: 31

Q: Quick one: TGI of CCC(C)N1CN(c2ccccc2)C2(CCN(CCCC(=O)c3ccc(F)cc3)CC2)C1=O (stereo not given) ?
Result: 30

Q: Quick one: TGI of CCc1ccccc1NC(=O)C1=C(C)NC(C)=C(C(=O)Nc2ccccc2CC)C1c1ccc(NC(C)=O)cc1 ?
Result: 65

---

test system: BT-549 breast; test: NCI tumour cell line growth inhibition, 48 h
Parameter: TGI (µM)
Numbers only; they are read as µM.

A selection of reference data follows.
{"Compound": "O=C1O[C@H](COC(=O)c2ccccc2)[C@@H](OC(=O)c2ccccc2)C=C1OC(=O)c1ccccc1", "Measure unit": "µM", "Numeric value": 43.7}
{"Compound": "COC(=O)C1(Cc2ccc3c(c2)CCC3)Cc2cc3c(cc2C1=O)CCC3 (centres undefined)", "Measure unit": "µM", "Numeric value": 39.2}
{"Compound": "O=C1C(Cl)=C(Nc2ccc3c(c2NC2=C(Cl)C(=O)c4ccccc4C2=O)C(=O)c2ccccc2C3=O)C(=O)c2ccccc21", "Measure unit": "µM", "Numeric value": 2.83}
{"Compound": "O=C1/C(=C/c2ccc(C(F)(F)F)cc2)COc2ccc(O)cc21", "Measure unit": "µM", "Numeric value": 15.5}

Q: Quick one: TGI of C=C1C(=O)O[C@H]2[C@H]1CC/C(COC(=O)NCc1cccc(OC)c1)=C\CC[C@@]1(C)O[C@@H]21 ?
Result: 3.21

Q: Quick one: TGI of Cc1ccc2oc(=O)cc(C3c4ccc([nH]4)C(c4cc(=O)oc5ccc(C)cc45)c4ccc([nH]4)C(c4cc(=O)oc5ccc(C)cc45)c4ccc([nH]4)C(c4cc(=O)oc5ccc(C)cc45)c4ccc3[nH]4)c2c1 (centres undefined) ?
Result: 0.183

Q: Quick one: TGI of O=C(Nn1c2c(sc1=NC1CC1)C(=O)c1ccccc1C2=O)c1cc2ccc1CCc1ccc(cc1)CC2 ?
Result: 2.91

Q: Quick one: TGI of CCN1CCN(c2cc(C)nc(NCc3cc(Nc4ccnc5cc(Cl)ccc45)ccc3F)n2)CC1 ?
Result: 21.8

Q: Quick one: TGI of O=C1/C(=C\c2cn(CC(O)CN3CCCCC3)c3ccccc23)c2ccccc2N1c1c(Cl)cccc1Cl (centres undefined) ?
Result: 3.18

Q: Quick one: TGI of CCCCCC/C=C\CCCCCCCCCc1c(O)c(OC)cc(O)c1CN(C)C ?
Result: 21
